Every entry's value here was drawn from PubChem BioAssay (NCI).

Each entry below lists one item and its recorded TGI value.
tested on: NCI-H226 lung; assay: NCI tumour cell line growth inhibition, 48 h

Nc1nc2c(ccc3ccccc32)s1    > 100 µM
NCCOc1ncccc1/C=C1\c2ccccc2-c2ccc([N+](=O)[O-])cc21    0.366 µM
NC(N)=N/N=C/c1c(-c2cc([N+](=O)[O-])c(Cl)cc2Cl)nc2n1CCS2    92.5 µM
COc1cc(-c2cc3ncccc3c3[nH]c(=O)c4cccnc4c23)cc(OC)c1OC    > 100 µM
NCCNC(=O)CN(CC(=O)O)C1CCCCC1N(CC(=O)O)CC(=O)O (stereo unspecified)    > 100 µM
CN(C)c1ccc(/C=C(\NC(=O)c2ccccc2)C(=O)NC(Cc2c[nH]c3ccccc23)C(=O)O)cc1 (stereo unspecified)    > 100 µM

Then this molecule:
Entry under review: `C=CCn1c(=N)/c(=C(\N)O)s/c1=C1/SC(=S)N(c2ccc(C)cc2)C1=O` . Reported TGI?
> 100 µM
